assay: Cytotoxicity against human PBMC; assay type: cell-based; details: read-out: TC50 (the source's name)
Recorded metric: CC50

(Q) # lookup: CC50 of Cc1cn([C@H]2C[C@H](N=[N+]=[N-])[C@@H](COC(=O)CCCCCCCCCCC(=O)OC[C@H]3O[C@@H](n4cc(C)c(=O)[nH]c4=O)C[C@@H]3N=[N+]=[N-])O2)c(=O)[nH]c1=O
(A) > 1 µM

(Q) # query: CC50 of entry Nc1ccn([C@@H]2CS[C@H](COC(=O)CCCCCCCCCCCCC(=O)OC[C@@H]3O[C@H](n4ccc(N)nc4=O)CS3)O2)c(=O)n1
(A) > 1 µM

(Q) Looking for the measured CC50 of Nc1ccn([C@@H]2CS[C@H](COC(=O)CCC(=O)OC[C@@H]3O[C@H](n4ccc(N)nc4=O)CS3)O2)c(=O)n1 , can you help?
(A) > 1 µM

(Q) What CC50 value was documented for this compound, Cc1cn([C@H]2C[C@H](F)[C@@H](COC(=O)CCCCCCCCCCC(=O)OC[C@H]3O[C@@H](n4cc(C)c(=O)[nH]c4=O)C[C@@H]3F)O2)c(=O)[nH]c1=O ?
(A) > 1 µM

(Q) Any idea what CC50 was measured for Nc1ccn([C@@H]2CS[C@H](CO)O2)c(=O)n1 [LAMIVUDINE] ?
(A) > 0.5 µM

(Q) Field request: CC50 | item: Nc1ccn([C@@H]2CS[C@H](COC(=O)CCCCCCCCCCC(=O)OC[C@@H]3O[C@H](n4ccc(N)nc4=O)CS3)O2)c(=O)n1
(A) > 1 µM

(Q) Please report the recorded CC50 for Cc1cn([C@H]2C[C@H](N=[N+]=[N-])[C@@H](CO)O2)c(=O)[nH]c1=O [ZIDOVUDINE] .
(A) > 1 µM

----------
test system: Human immunodeficiency virus 1; test: Ratio of FLT EC50 to compound EC50 for HIV-1 subtype 3B infected in CEM-SS cells; format: functional
Recorded metric: Ratio EC50

(Q) Query the reported Ratio EC50 for Human immunodeficiency virus 1; item: Cc1cn([C@H]2C[C@H](F)[C@@H](CO)O2)c(=O)[nH]c1=O
(A) 4

(Q) I'm curious: which Ratio EC50 was measured for Cc1cn([C@H]2C[C@H](F)[C@@H](COC(=O)CCCCCCCCCCCCC(=O)OC[C@H]3O[C@@H](n4cc(C)c(=O)[nH]c4=O)C[C@@H]3F)O2)c(=O)[nH]c1=O tested on Human immunodeficiency virus 1?
(A) 5

(Q) Query for Human immunodeficiency virus 1: what Ratio EC50 does the record show for Cc1cn([C@H]2C[C@H](F)[C@@H](COC(=O)CCCCCCCCCCC(=O)OC[C@H]3O[C@@H](n4cc(C)c(=O)[nH]c4=O)C[C@@H]3F)O2)c(=O)[nH]c1=O ?
(A) 5

(Q) Value wanted: Ratio EC50 (Human immunodeficiency virus 1) of entry Cc1cn([C@H]2C[C@H](F)[C@@H](COC(=O)CCCCCCCCC(=O)OC[C@H]3O[C@@H](n4cc(C)c(=O)[nH]c4=O)C[C@@H]3F)O2)c(=O)[nH]c1=O
(A) 5

----------
experiment: Therapeutic index, ratio of TC50 for human PBMC to EC50 for HIV-1 subtype B US/92/727 infected in PBMC; conditions: uninfected and infected with HIV-1 subtype B US/92/727, read-out: TI
Recorded metric: selectivity ratio

(Q) Requested read-out: selectivity ratio. Entry: Nc1ccn([C@@H]2CS[C@H](COC(=O)CCC(=O)OC[C@@H]3O[C@H](n4ccc(N)nc4=O)CS3)O2)c(=O)n1
(A) > 7

(Q) Item Nc1ccn([C@@H]2CS[C@H](COC(=O)CCCCCCCCCCC(=O)OC[C@@H]3O[C@H](n4ccc(N)nc4=O)CS3)O2)c(=O)n1 has what recorded selectivity ratio?
(A) > 50

(Q) Can you look up the measured selectivity ratio of Cc1cn([C@H]2C[C@H](N=[N+]=[N-])[C@@H](COC(=O)CCCCCCCCC(=O)OC[C@H]3O[C@@H](n4cc(C)c(=O)[nH]c4=O)C[C@@H]3N=[N+]=[N-])O2)c(=O)[nH]c1=O for me?
(A) > 250

(Q) // selectivity ratio lookup, key: Cc1cn([C@H]2C[C@H](N=[N+]=[N-])[C@@H](CO)O2)c(=O)[nH]c1=O
(A) > 125

(Q) Return reported selectivity ratio; argument: Cc1cn([C@H]2C[C@H](N=[N+]=[N-])[C@@H](COC(=O)CCCCCCCCCCCCC(=O)OC[C@H]3O[C@@H](n4cc(C)c(=O)[nH]c4=O)C[C@@H]3N=[N+]=[N-])O2)c(=O)[nH]c1=O
(A) > 333

(Q) I have this compound here, Cc1cn([C@H]2C[C@H](F)[C@@H](COC(=O)CCCCCCCCCCC(=O)OC[C@H]3O[C@@H](n4cc(C)c(=O)[nH]c4=O)C[C@@H]3F)O2)c(=O)[nH]c1=O , and I need its recorded selectivity ratio.
(A) > 1030

(Q) What value of selectivity ratio has been reported for the following compound? Nc1ccn([C@@H]2CS[C@H](COC(=O)CCCCCCCCCCCCC(=O)OC[C@@H]3O[C@H](n4ccc(N)nc4=O)CS3)O2)c(=O)n1
(A) > 33

(Q) State the recorded selectivity ratio for this entry: Cc1cn([C@H]2C[C@H](F)[C@@H](COC(=O)CCCCCCCCCCCCC(=O)OC[C@H]3O[C@@H](n4cc(C)c(=O)[nH]c4=O)C[C@@H]3F)O2)c(=O)[nH]c1=O
(A) > 1320

(Q) Report selectivity ratio for Cc1cn([C@H]2C[C@H](F)[C@@H](COC(=O)CCCCCCCCC(=O)OC[C@H]3O[C@@H](n4cc(C)c(=O)[nH]c4=O)C[C@@H]3F)O2)c(=O)[nH]c1=O please.
(A) > 1000

(Q) May I ask what selectivity ratio has been recorded for Cc1cn([C@H]2C[C@H](F)[C@@H](CO)O2)c(=O)[nH]c1=O ?
(A) > 250

(Q) // lookup selectivity ratio for Cc1cn([C@H]2C[C@H](N=[N+]=[N-])[C@@H](COC(=O)CCCCCCCCCCC(=O)OC[C@H]3O[C@@H](n4cc(C)c(=O)[nH]c4=O)C[C@@H]3N=[N+]=[N-])O2)c(=O)[nH]c1=O
(A) > 500

(Q) Param item = Nc1ccn([C@@H]2CS[C@H](CO)O2)c(=O)n1 ; retrieve measured selectivity ratio.
(A) > 5.6

(Q) Requested field: selectivity ratio. Item: Nc1ccn([C@@H]2CS[C@H](COC(=O)CCCCCCCCC(=O)OC[C@@H]3O[C@H](n4ccc(N)nc4=O)CS3)O2)c(=O)n1
(A) > 17

Sourced from ChEMBL document CHEMBL2062511
